# TARGET OR TEST SYSTEM: Cdk9/cyclinT1 (Homo sapiens)
# PROTOCOL TEXT: Cdk9/cyclinT1 IMAP Protocol (fluorescence polarization kinase assay)
# COND: Cdk9_cyclinT1_IC50, Table V; generated using one of the two Cdk9/cyclinT1 assays (IMAP or Alpha Screen), not stated which; ATP 6 uM
// returns class 0 unless IC50 is strictly below 10 nM, in which case class 1

INSERT INTO results (compound, class) VALUES
  ('O=C(Nc1cc(-c2nc(NCC3CCOCC3)ccc2F)c(Cl)cn1)C1CNCCOC1 (single isomer, unassigned) [Example 222]', 'class 0'),
  ('O=C(Nc1cc(-c2cccc(NCc3cncc(F)c3)n2)c(Cl)cn1)[C@@H]1CCCNC1', 'class 1'),
  ('O=C(Nc1cc(-c2cccc(NCC3CCCCC3)n2)c(Cl)cn1)[C@@H]1CCCNC1', 'class 1'),
  ('CC(=O)N1CCC[C@@H](C(=O)Nc2cc(-c3cccc(NCC4CCOCC4)n3)c(Cl)cn2)C1', 'class 0'),
  ('N[C@@H]1CCC[C@H](C(=O)Nc2cc(-c3cccc(NCC4CCOCC4)n3)c(Cl)cn2)C1 (racemic)', 'class 1'),
  ('CC(C)S(=O)(=O)N1CCC[C@H](C(=O)Nc2cc(-c3nc(NC[C@H]4CCOC(C)(C)C4)ccc3Cl)c(Cl)cn2)C1 (single isomer, unassigned)', 'class 1');

###

# TARGET OR TEST SYSTEM: Cdk9/cyclinT1 (Homo sapiens)
# PROTOCOL TEXT: Cdk9/cyclinT1 IMAP Protocol (fluorescence polarization kinase assay)
# COND: Cdk9_cyclinT1_IC50, Table V; generated using one of the two Cdk9/cyclinT1 assays (IMAP or Alpha Screen), not stated which; ATP 6 uM
pIC50: −log10 of the molar value.
Binary classification by pIC50, with 8 as an inclusive lower bound for true; all other cases are false.

INSERT INTO assay_data (molecule, class) VALUES
  ('O=C(Nc1cc(-c2cccc(NCC3CCCOC3)n2)c(Cl)cn1)[C@@H]1CCCNC1 (stereo partly drawn) [Example 18]', 'true'),
  ('O=C(Nc1cc(-c2ccc(F)c(NCC3CCOCC3)n2)c(Cl)cn1)[C@H]1CNCCO1 [Example 205]', 'true'),
  ('CO[C@H]1CNC[C@@H]1C(=O)Nc1cc(-c2cccc(NCC3C[C@@H](C)O[C@@H](C)C3)n2)c(Cl)cn1 (stereo partly drawn) [Example 171]', 'true'),
  ('O=C(Nc1cc(-c2nc(NCC3CCOCC3)ccc2Cl)c(F)cn1)[C@@H]1CCCNC1 [Example 123]', 'true'),
  ('O=C(Nc1cc(-c2nc(NCC3CCOCC3)ccc2Cl)c(Cl)cn1)[C@@H]1CCCNC1 [Example 75]', 'true'),
  ('O=C(Nc1cc(-c2cccc(N3CCC(c4ccccc4)CC3)n2)c(Cl)cn1)[C@@H]1CCCNC1 [Example 42]', 'false'),
  ('O=C(Nc1cc(-c2cccc(NCC3CCOCC3)n2)c(Cl)cn1)C1(F)CCCNC1 (single isomer, unassigned) [Example 117]', 'false'),
  ('O=C(Nc1cc(-c2nc(NCC3CCOCC3)ccc2Cl)c(Cl)cn1)C1CNCCOC1 (stereo not drawn) [Example 191]', 'true'),
  ('CC1(C)CCC(C(=O)Nc2cc(-c3cccc(NCC4CCOCC4)n3)ccn2)CN1 (stereo not drawn) [Example 195]', 'true'),
  ('COC(=O)N1CCC[C@H](C(=O)Nc2cc(-c3nc(NC[C@H]4CCOC(C)(C)C4)ccc3Cl)c(Cl)cn2)C1 (single isomer, unassigned) [Example 175]', 'true'),
  ('O=C(Nc1cc(-c2cccc(NCC3CCOCC3)n2)c(Cl)cn1)C1CCCC1 [Example 65]', 'true'),
  ('O=C(Nc1cc(-c2cccc(NC[C@H]3CCCO3)n2)c(Cl)cn1)[C@@H]1CCCNC1 [Example 25]', 'false'),
  ('O=C(Nc1cc(-c2nc(NCC3CCOCC3)ccc2Cl)c(Cl)cn1)C1CNCCO1 (stereo not drawn) [Example 87]', 'false'),
  ('COC[C@@H]1C[C@@H](C(=O)Nc2cc(-c3nc(NCC4CCOC(C)(C)C4)ccc3Cl)c(Cl)cn2)CN1 (stereo partly drawn) [Example 186]', 'true'),
  ('CC[C@@H]1CC[C@@H](C(=O)Nc2cc(-c3cccc(NCC4CCOCC4)n3)c(Cl)cn2)CN1 (racemic) [Example 229]', 'true'),
  ('O=C(Nc1cc(-c2nc(NCC3CCOCC3)ccc2Cl)c(Cl)cn1)C1CNCCOC1 (single isomer, unassigned) [Example 213]', 'true'),
  ('CC(C)(C)C(=O)Nc1cc(-c2cccc(NCC3CCOCC3)n2)c(Cl)cn1 [Example 72]', 'false'),
  ('O=C(Nc1cc(-c2cccc(N3CCC(O)CC3)n2)c(Cl)cn1)[C@@H]1CCCNC1 [Example 43]', 'false'),
  ('O=C(Nc1cc(-c2cccc(NCC3CCOCC3)n2)c(Cl)cn1)[C@H]1CCCN(S(=O)(=O)C2CC2)C1 [Example 93]', 'true'),
  ('CC[C@@H]1CC[C@@H](C(=O)Nc2cc(-c3ccc(F)c(NCC4CCOCC4)n3)c(Cl)cn2)CN1 (racemic) [Example 250]', 'true'),
  ('CC1(C(=O)Nc2cc(-c3cccc(NCC4CCOCC4)n3)c(Cl)cn2)CNCCO1 (stereo not drawn) [Example 145]', 'false'),
  ('C[C@@H]1CC[C@@H](C(=O)Nc2cc(-c3cccc(NCC4CCOCC4)n3)c(Cl)cn2)CN1 (single isomer, unassigned) [Example 146]', 'true'),
  ('C[C@@H](O)CNc1cccc(-c2cc(NC(=O)[C@@H]3CCCNC3)ncc2Cl)n1 [Example 29]', 'false'),
  ('O=C(Nc1cc(-c2cccc(NCC3CCCCCC3)n2)c(Cl)cn1)[C@@H]1CCCNC1 [Example 19]', 'true'),
  ('CC1(C)C[C@H](CNc2ccc(Cl)c(-c3cc(NC(=O)[C@H]4CNCCO4)ncc3Cl)n2)CCO1 (single isomer, unassigned) [Example 156]', 'true');

###

# TARGET OR TEST SYSTEM: Cdk9/cyclinT1 (Homo sapiens, UniProt P50750)
# Sequence (P50750 whole entry): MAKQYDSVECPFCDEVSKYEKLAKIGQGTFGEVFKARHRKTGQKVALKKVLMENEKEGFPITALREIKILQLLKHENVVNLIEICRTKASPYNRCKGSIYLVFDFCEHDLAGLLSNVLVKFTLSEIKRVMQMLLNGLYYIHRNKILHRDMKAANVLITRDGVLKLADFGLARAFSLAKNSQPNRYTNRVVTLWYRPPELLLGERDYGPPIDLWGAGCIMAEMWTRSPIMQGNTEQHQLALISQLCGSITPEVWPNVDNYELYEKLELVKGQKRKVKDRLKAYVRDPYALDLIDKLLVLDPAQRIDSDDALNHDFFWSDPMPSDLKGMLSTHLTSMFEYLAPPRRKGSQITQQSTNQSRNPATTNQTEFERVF
# Sequence (O60563 whole entry partner): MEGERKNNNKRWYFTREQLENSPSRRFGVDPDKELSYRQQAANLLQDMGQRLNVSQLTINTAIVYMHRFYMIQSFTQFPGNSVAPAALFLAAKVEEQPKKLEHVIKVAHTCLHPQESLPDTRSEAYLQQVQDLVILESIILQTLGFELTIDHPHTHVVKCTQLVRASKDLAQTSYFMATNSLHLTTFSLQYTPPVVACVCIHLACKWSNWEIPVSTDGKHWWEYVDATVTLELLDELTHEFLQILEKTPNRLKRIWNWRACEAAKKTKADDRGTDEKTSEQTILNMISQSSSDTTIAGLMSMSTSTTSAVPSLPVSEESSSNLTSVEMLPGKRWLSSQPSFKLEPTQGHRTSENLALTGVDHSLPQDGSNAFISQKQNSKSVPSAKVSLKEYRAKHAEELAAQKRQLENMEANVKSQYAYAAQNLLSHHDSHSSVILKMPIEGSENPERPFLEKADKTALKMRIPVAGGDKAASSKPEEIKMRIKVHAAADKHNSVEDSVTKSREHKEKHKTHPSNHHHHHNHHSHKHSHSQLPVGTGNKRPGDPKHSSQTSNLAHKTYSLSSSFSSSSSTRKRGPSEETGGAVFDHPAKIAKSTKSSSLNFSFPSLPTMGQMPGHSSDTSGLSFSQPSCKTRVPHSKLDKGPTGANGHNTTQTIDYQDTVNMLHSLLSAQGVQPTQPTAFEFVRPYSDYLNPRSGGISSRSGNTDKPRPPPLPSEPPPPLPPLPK
# PROTOCOL TEXT: Cdk9/cyclinT1 IMAP Protocol (fluorescence polarization kinase assay)
# COND: Cdk9_cyclinT1_IC50, Table V; generated using one of the two Cdk9/cyclinT1 assays (IMAP or Alpha Screen), not stated which; ATP 6 uM
pIC50: −log10 of the molar value.
Catalogue of pIC50 values
OBSERVABLE: pIC50

INSERT INTO measurements (compound, target_or_test_system, relation_operator, numeric_result) VALUES
  ('O=C(Nc1cc(-c2nc(NCC3CCOCC3)ccc2Cl)c(Cl)cn1)[C@@H]1CCNC1', 'Cdk9/cyclinT1 (Homo sapiens, UniProt P50750)', '>', 8.10),
  ('CCN1CCCC(C(=O)Nc2cc(-c3cccc(NCC4CCOCC4)n3)c(Cl)cn2)C1 (stereo not shown) [Example 9]', 'Cdk9/cyclinT1 (Homo sapiens, UniProt P50750)', '=', 6.84),
  ('CC1(C)CC(CNc2cccc(-c3cc(NC(=O)C4CNCCOC4)ncc3Cl)n2)CCO1 (stereo not shown)', 'Cdk9/cyclinT1 (Homo sapiens, UniProt P50750)', '=', 8.70),
  ('CN1CCCCC(C(=O)Nc2cc(-c3cccc(NCC4CCOCC4)n3)c(Cl)cn2)C1 (stereo not shown)', 'Cdk9/cyclinT1 (Homo sapiens, UniProt P50750)', '=', 7.29);

###

# TARGET OR TEST SYSTEM: Cdk9/cyclinT1 (Homo sapiens)
# PROTOCOL TEXT: Cdk9/cyclinT1 IMAP Protocol (fluorescence polarization kinase assay)
# COND: Cdk9_cyclinT1_IC50, Table V; generated using one of the two Cdk9/cyclinT1 assays (IMAP or Alpha Screen), not stated which; ATP 6 uM
Catalogue of IC50 values
OBSERVABLE: IC50 (nM)

INSERT INTO results (compound, relation_operator, numeric_result) VALUES
  ('O=C(Nc1cc(-c2cccc(NC[C@@H]3CCCO3)n2)c(Cl)cn1)[C@@H]1CCCNC1', '=', 21),
  ('CS(=O)(=O)N1CCC[C@H](C(=O)Nc2cc(-c3cccc(NCC4CCOCC4)n3)c(Cl)cn2)C1', '<', 8),
  ('O=C(Nc1cc(-c2cccc(NCC3CCOCC3)n2)c(Cl)cn1)C1(F)CCCNC1 (centres unmarked) [Example 95]', '=', 167),
  ('CC(=O)N1CCC(CNc2cccc(-c3cc(NC(=O)[C@@H]4CCCNC4)ncc3Cl)n2)CC1', '<', 8),
  ('O=C(Nc1cc(-c2cccc(NCC3CCOCC3)n2)c(Cl)cn1)[C@H]1CNC[C@H](C(F)(F)F)C1 (racemic) [Example 149]', '=', 31),
  ('O=C(Nc1cc(-c2cccc(NCC3CC3)n2)c(Cl)cn1)[C@@H]1CCCNC1', '=', 44),
  ('O=C(Nc1cc(-c2cccc(NCC3CCOCC3)n2)c(Cl)cn1)[C@H]1CNCCO1', '=', 5),
  ('C[C@H]1CNC[C@H](C(=O)Nc2cc(-c3cccc(NCC4CCOCC4)n3)c(Cl)cn2)C1 (racemic)', '=', 46);
